Test: photoluminescence quantum yield (fraction); solvent given as SMILES
Conditions: in C1CCCCC1
PROPERTY LABEL: photoluminescence quantum yield
Give the figure by itself; no unit, no explanation.

In the examples that follow, each entry is paired with its recorded photoluminescence quantum yield.
COc1c2ccccc2c(OC)c2c1c1ccc(F)cc1n2C
0.36
CCC1=C(C)C2=Cc3cccn3[B-](F)(F)[N+]2=C1C
0.7
COc1ccc(/C=C(\C)c2nc3ccccc3o2)cc1
0.002
COc1c2ccccc2c(OC)c2c1c1ccc(C)cc1n2C
0.4
CC1(C)CCc2c(c3ccccc3c3nc4c5c(c6ccccc6c4nc23)OC(C)(C)CC5)O1
0.38

Exercise: Query: photoluminescence quantum yield; subject: CN(C)c1ccc2nc(/C=C/c3ccccc3)c(=O)oc2c1
Solution: 0.77

Exercise: Query: photoluminescence quantum yield; subject: CC(C)(C)c1ccc2c(c1)c1cc(C(C)(C)C)ccc1n2-c1ccc2oc3nc4oc5ccc(C(F)(F)F)cc5c4cc3c2c1
Solution: 0.113

Exercise: Query: photoluminescence quantum yield; subject: CN(C)CCN(Cc1c2ccccc2cc2ccccc12)c1ccc([N+](=O)[O-])cc1[N+](=O)[O-]
Solution: 0.0001

Exercise: Query: photoluminescence quantum yield; subject: Clc1cc(Cl)c([C](c2c(Cl)cc(Cl)cc2Cl)c2c(Cl)cc(-n3c4ccccc4c4ccccc43)cc2Cl)c(Cl)c1
Solution: 0.64

Exercise: Query: photoluminescence quantum yield; subject: CN(C)c1cccc2c1-c1ccccc1C2=O
Solution: 0.075

// data source = the Deep4Chem optical property database
